The molecules listed here are annotated with their pKi.
MEASUREMENT_TARGET: vanilloid receptor 1 (VR1/TRPV1) of the rat species (Rattus norvegicus, UniProt O35433)
Construct: The spinal column is removed from decapitated rats; from tissue; host or cells: primary cells dissociated from rat dorsal root ganglia
Sequence (O35433 whole entry): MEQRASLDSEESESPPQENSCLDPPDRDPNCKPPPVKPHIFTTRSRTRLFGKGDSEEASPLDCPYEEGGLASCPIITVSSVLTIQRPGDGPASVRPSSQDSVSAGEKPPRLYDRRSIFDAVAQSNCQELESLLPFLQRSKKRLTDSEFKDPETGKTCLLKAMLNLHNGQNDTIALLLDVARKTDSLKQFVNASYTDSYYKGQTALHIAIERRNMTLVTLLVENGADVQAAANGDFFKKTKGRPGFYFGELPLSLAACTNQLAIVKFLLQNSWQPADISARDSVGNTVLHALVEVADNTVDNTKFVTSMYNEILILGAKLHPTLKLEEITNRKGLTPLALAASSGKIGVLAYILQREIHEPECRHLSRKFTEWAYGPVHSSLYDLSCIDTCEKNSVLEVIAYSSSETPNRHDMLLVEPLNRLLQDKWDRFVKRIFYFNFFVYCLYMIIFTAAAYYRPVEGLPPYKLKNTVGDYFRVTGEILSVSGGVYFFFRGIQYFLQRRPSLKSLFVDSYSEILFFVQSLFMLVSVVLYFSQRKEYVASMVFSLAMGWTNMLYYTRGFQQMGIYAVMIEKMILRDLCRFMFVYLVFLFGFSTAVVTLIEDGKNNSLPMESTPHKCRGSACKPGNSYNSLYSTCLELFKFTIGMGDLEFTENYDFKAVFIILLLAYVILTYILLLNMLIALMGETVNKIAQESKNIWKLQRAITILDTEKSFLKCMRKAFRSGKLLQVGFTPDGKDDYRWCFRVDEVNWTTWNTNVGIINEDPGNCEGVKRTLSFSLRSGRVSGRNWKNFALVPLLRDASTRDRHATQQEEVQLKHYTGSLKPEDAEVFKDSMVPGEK
ASSAY_TEXT: FLIPR Ca2+ influx assay on rat dorsal root ganglia cells (pharmacological method I)
Type: cell-based
APPLIED_CONDITIONS: table 4; capsaicin; read-out: Ki (rat) Cap.
Protocol: I. Functional Investigation of the Vanilloid Receptor 1 (VR1/TRPV1 Receptor) The agonistic or antagonistic action of the substances to be investigated on the vanilloid receptor 1 (VR1/TRPV1) of the rat species may be determined by the following assay. […] The DRGs are in each case repeatedly suspended, drawn by means of a syringe through no. […] The resultant pellet is in each case resuspended in 250 μL of complete medium and the cell count determined. […]
Just the number, please; pKi means minus log10 of the concentration in mol/L.

| MOLECULE | pKi |
| --- | --- |
| CC(C(=O)NCc1ccc(C(C)(C)C)nc1OC1CCCC1)c1ccc(NS(C)(=O)=O)c(F)c1 (stereo not shown) | 9.00 |
| CCS(=O)(=O)Nc1ccc(C(C)C(=O)NCc2ccc(C(F)(F)F)nc2N2CCC(C)CC2)cc1F (stereo not shown) | 8.46 |
| CC(C(=O)NCc1ccc(C(F)(F)Cl)nc1OCc1ccccc1)c1ccc(NS(C)(=O)=O)c(F)c1 (stereo not shown) | 9.22 |
| CCOC1CCN(c2nc(C(F)(F)F)ccc2CNC(=O)C(C)c2ccc(NS(C)(=O)=O)c(F)c2)CC1 (stereo not shown) | 8.60 |
| CC(C(=O)NCc1ccc(C(F)(F)F)nc1N1Cc2ccccc2C1)c1ccc(NS(C)(=O)=O)c(F)c1 (stereo not shown) | 8.30 |

Consider the molecule CC(C(=O)NCc1ccc(C(F)(F)F)nc1N1CCN(c2ccccc2F)CC1)c1ccc(NS(C)(=O)=O)c(F)c1 (stereo not shown) . State its measured pKi.
8.92

Name the recorded pKi of the molecule listed here: CC(C(=O)NCc1ccc(C(F)(F)F)nc1OCc1cccnc1)c1ccc(NS(C)(=O)=O)c(F)c1 (stereo not shown)
7.52

Data origin, for the record: patent US8710233B2
